tested on: SK-MEL-2 melanoma; assay: NCI tumour cell line growth inhibition, 48 h
Experimental Endpoint: TGI

Compound: CC[C@@H](C)/C=C(C)/C=C/C(=O)c1c(O)c(-c2ccc(OC(=O)[C@@]34CC[C@@](C)(C(=O)O3)C4(C)C)cc2)cn(O)c1=O
TGI: > 50 µM
//
Compound: COc1ccc2c(c1)C(=Nc1ccc(F)c(Cl)c1)c1c-2c(Nc2ccc(F)c(Cl)c2)nc2ccccc12
TGI: > 71.8 µM
//
Compound: C=C1CC[C@@H]2C13[C@@H]1[C@H](CC(=O)[C@@]23C)C1(C)C (stereo not given in full)
TGI: > 100 µM
//
Compound: ICC1CCCO1 (stereo not given)
TGI: > 100 µM

// moving on: another record for TGI
Look up TGI for this compound: Cc1ccc(Nc2cccc3c2C(=O)c2cccc(Nc4ccc(C)cc4S(=O)(=O)O)c2C3=O)c(S(=O)(=O)O)c1 > 100 µM

* * *

tested on: COLO 205 colon; assay: NCI tumour cell line growth inhibition, 48 h
Experimental Endpoint: TGI

Compound: CC(=O)[CH-]C(=O)c1ccccc1.CC(=O)[CH-]C(=O)c1ccccc1.Cl.[O-]c1ccnc2ccccc12.[O-]c1ccnc2ccccc12.[Ti+4]
TGI: > 100 µM
--
Compound: c1ccc(-c2[nH]ncc2-c2ccnc(-c3ccc(OCCN4CCOCC4)cc3)c2)nc1
TGI: > 25 µM
--
Compound: COc1ccc2c(c1)CCc1c-2[nH]c2cc3c(cc2c1=O)OCO3
TGI: > 100 µM

Report TGI for CC(C)(C)[Si](C)(C)OCC1OC(n2cnc3c(=O)[nH]cnc32)CC1O (centres undefined) tested on COLO 205 colon. > 100 µM

* * *

test system: HCT-116 colon; test: NCI tumour cell line growth inhibition, 48 h
TGI: recorded values

These solved cases illustrate the format of a correct answer.
Compound: O=C(/C=C/c1ccc(Cl)c(Cl)c1)c1ccccc1Cl
Experimental Endpoint: TGI
Value Measured: 9.95 µM
//
Compound: O=Cc1cn(CCCCCCCCn2cc(C=O)c3ccccc32)c2ccccc12
Experimental Endpoint: TGI
Value Measured: > 10 µM
//
Compound: O=C(OCc1ccccc1)C(Cc1ccc(OCc2ccccc2)cn1)NC(=O)C(F)(F)F (stereo not drawn)
Experimental Endpoint: TGI
Value Measured: > 100 µM
//
Compound: O=C1c2ccccc2C(=O)N1CCCOCc1c[nH]c(=O)[nH]c1=O
Experimental Endpoint: TGI
Value Measured: > 100 µM
//
Compound: C=C1CC[C@@H]2C13[C@@H]1[C@H](CC(=O)[C@@]23C)C1(C)C (stereo partly drawn)
Experimental Endpoint: TGI
Value Measured: > 100 µM
//
Compound: O=S1SC(=S)C2C=CC=NC21 (stereo not drawn)
Experimental Endpoint: TGI
Value Measured: 26.6 µM
//
Compound: S=C1NC2=C(CSC/C2=C\c2ccc(Cl)cc2)C(c2ccc(Cl)cc2)N1 (stereo not drawn)
Experimental Endpoint: TGI
Value Measured: > 100 µM

// moving on: another record for TGI
Report TGI for CN1CCC2(CC1)N=C(SCC(=O)Nc1cnc3ccccc3c1)C(c1ccc(Br)cc1)=N2 tested on HCT-116 colon. 3.16 µM

* * *

tested on: XF 498 CNS; test: NCI tumour cell line growth inhibition, 48 h
Where a SMILES comes first, the peptide text is derived from it. [ ]: non-standard residue; d: D form. The star is where a group is joined. ξ: configuration not given here. ξNMeF = CNC(Cc1ccccc1)C(=O)O; NMeV = CN[C@H](C(=O)O)C(C)C; Boc = CC(C)(C)OC(=O)*; OBn = c1ccc(CO*)cc1
TGI: recorded values
Express your answer in µM, writing the number without its unit.

These solved cases illustrate the format of a correct answer.
Compound: O=C=C=P(c1ccccc1)(c1ccccc1)c1ccccc1
Experimental System: XF 498 CNS
TGI [µM]: 89.7
//
Compound: CNC(=O)ON(C(C)=O)C(=O)NC
Experimental System: XF 498 CNS
TGI [µM]: 131

// moving on: another record for TGI
Look up TGI for this compound: CC(C)[C@@H](C(=O)N(C)[C@H](C(=O)N1CCC[C@H]1C(=O)OCc1ccccc1)C(C)C)N(C)C(=O)C(Cc1ccccc1)N(C)C(=O)[C@H](NC(=O)OC(C)(C)C)C(C)C (some centres not stated) (Boc-[dV][ξNMeF][NMeV][NMeV]P-OBn) 27.9
